From: paper PMC7463582

- protocol-notes: Zebrafish embryo test: lethality and dysmorphogenesis after exposure to a single oxidative stress-related compound
- Type: in vivo, Zebrafish (Danio rerio)
- assay-conditions: zebrafish, in vivo; exposure window 2–26 hpf; read-out: LC50 (lethal concentration 50)
metric: LC50
Dear colleague, please send the value followed by its unit.

Which LC50 is listed for `CC(=O)N[C@@H](CS)C(=O)O` ? 1.87 mM
